Tested on: Plutella xylostella
test.method.notes: Insecticidal activities to diamondback moth, feeding dipped leaves
Assay type: in vivo
condition.set: in vivo
assay.readout: Plutella xylostella Mortality (%) 500 ppm
Only the number, expressed in %, is required.

Lookup: I would be grateful if you could share the reported Plutella xylostella Mortality (%) 500 ppm for O=[N+]([O-])C(=Cc1cc(Br)co1)C1=NCCN1CC1CCOC1 (centres unmarked) [Compound 97] .
Found: 86

Lookup: I would be grateful if you could share the reported Plutella xylostella Mortality (%) 500 ppm for CC(c1ccc(Cl)nc1)N1CCN=C1C(=Cc1cccs1)[N+](=O)[O-] (racemic) [Compound 127] .
Found: 100

Lookup: I would be grateful if you could share the reported Plutella xylostella Mortality (%) 500 ppm for CCc1ccc(C=C(C2=NCCN2CC2CCOC2)[N+](=O)[O-])o1 (centres unmarked) [Compound 101] .
Found: 78

====

Test system: Aphis craccivoral
test.method.notes: Insecticidal activities to aphids, immersion method
Format: in vivo
condition.set: in vivo
assay.readout: Aphis craccivoral Mortality (%) 500 ppm
Only the number, expressed in %, is required.

Lookup: I would be grateful if you could share the reported Aphis craccivoral Mortality (%) 500 ppm for O=[N+]([O-])C(=Cc1cc(Cl)c(Cl)o1)C1=NCCN1Cc1ccc(Cl)nc1 [Compound 8] .
Found: 100

====

Tested on: Nilaparvata lugens
test.method.notes: Insecticidal activities to plant hopper, spraying method
Format: in vivo
condition.set: in vivo
assay.readout: Nilaparvata lugens Mortality (%) 500 ppm
Only the number, expressed in %, is required.

Below, 3 compounds whose answers are already recorded.
Cc1ccc(C=C(C2=[N+](C)CCN2Cc2ccc(Cl)nc2)[N+](=O)[O-])o1.[Cl-] [Compound 255]
100
O=[N+]([O-])C(=Cc1ccc([N+](=O)[O-])o1)C1=NCCCN1Cc1ccc(Cl)nc1 [Compound 48]
100
C[N+]1=C(C(=Cc2cc(Cl)co2)[N+](=O)[O-])N(Cc2ccc(Cl)nc2)CC1.[Cl-] [Compound 249]
100

Lookup: Form: Entry = CC(=C(C1=NCCN1C(C)c1ccc(Cl)nc1)[N+](=O)[O-])c1ccc(Cl)o1 (racemic) [Compound 136] | System = Nilaparvata lugens | Nilaparvata lugens Mortality (%) 500 ppm = ____
Found: 100

Lookup: Form: Entry = CC(c1ccc(Cl)nc1)N1CCN=C1C(=Cc1ccsc1)[N+](=O)[O-] (racemic) [Compound 128] | System = Nilaparvata lugens | Nilaparvata lugens Mortality (%) 500 ppm = ____
Found: 100

Lookup: Form: Entry = CCN(Cc1ccc(Cl)nc1)C(=NC)C(=C(C)c1ccc(Cl)s1)[N+](=O)[O-] [Compound 203] | System = Nilaparvata lugens | Nilaparvata lugens Mortality (%) 500 ppm = ____
Found: 100

====

Overview of reported Nilaparvata lugens Mortality (%) 500 ppm across a group of compounds:
System: Nilaparvata lugens
test.method.notes: Insecticidal activities to plant hopper, spraying method
Format: in vivo
condition.set: in vivo
Only the number, expressed in %, is required.

C[N+]1=C(C(=Cc2ccco2)[N+](=O)[O-])N(Cc2ccc(Cl)nc2)CC1.[Cl-]
100

Next compound, please.
Lookup: I would be grateful if you could share the reported Nilaparvata lugens Mortality (%) 500 ppm for O=[N+]([O-])C(=Cc1cc(Cl)co1)C1=NCCCN1Cc1ccc(Cl)nc1 .
Found: 100

These entries and their values trace back to patent US8232407B2.
